All figures here come from patent US20170119913A1.

Molecular target: T1, delta 2 (DOP) (h), delta2 opioid receptor (human (printed as (h))), P41143
T1 chain: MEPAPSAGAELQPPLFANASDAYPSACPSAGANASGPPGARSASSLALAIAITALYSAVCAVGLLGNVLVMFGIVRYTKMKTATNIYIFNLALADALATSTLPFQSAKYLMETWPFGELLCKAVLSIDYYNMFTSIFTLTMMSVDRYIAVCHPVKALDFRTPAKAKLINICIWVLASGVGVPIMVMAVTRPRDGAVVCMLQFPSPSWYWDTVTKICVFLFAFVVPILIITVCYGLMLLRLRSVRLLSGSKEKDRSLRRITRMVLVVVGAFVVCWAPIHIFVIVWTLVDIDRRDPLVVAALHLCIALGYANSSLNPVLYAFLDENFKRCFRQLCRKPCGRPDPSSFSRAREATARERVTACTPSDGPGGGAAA
Test: Cerep ExpresSProfile radioligand competition binding, reference compound (agonist radioligand)
experimental-endpoint: Ki (nM)

YCGFC (modifications not checked) [DPDPE] = 2
